Values were extracted from paper PMC12163657.

# testProtocol: Single-dose pharmacokinetics, rat
# Assay type: in vivo
# conditionParameters: Sprague-Dawley, serum, iv, 0.5 mg/kg
metric: clearance
Be sure to follow the number with its unit.

Task: // query clearance value for entry `CCCN1CC(Oc2ccc([C@@H]3c4[nH]c5ccccc5c4C[C@@H](C)N3CC(C)(C)F)cc2)C1`
Result: 13.3 mL/min/kg

----------
Consider the following compounds and their measured half-life readings.
# testProtocol: Mouse hepatocyte stability
# Assay type: in vitro ADME
# conditionParameters: hepatocytes

As a guide, the following entries are already answered.
> print(dat)
                                 chemsmiles  observedmeasurement
1  CCCN1CC(Oc2ccc([C@@H]3c4[nH]c5ccccc5c4C[C@@H](C)N3C[C@@H](C)CO)cc2)C1               3.05 h
2  C[C@@H]1Cc2c([nH]c3ccccc23)[C@@H](c2ccc(OCCN3CC(CF)C3)c(F)c2)N1CC(C)(C)F               3.78 h
3  CCCN1CC(Cc2cc(F)c([C@@H]3c4[nH]c5ccccc5c4C[C@@H](C)N3CC(C)(C)F)c(F)c2)C1                > 6 h

Moving on to the next compound.
Task: // query half-life value for entry `CCCN1CC(Oc2ccc([C@@H]3c4[nH]c5ccccc5c4C[C@@H](C)N3CC(C)(C)F)cc2)C1`
Result: > 6 h

----------
# testProtocol: In vivo mouse oral single dose PK
# conditionParameters: oral single dose
Consider the following compounds and their measured total AUCinf readings.
Please respond with the number in ng·h/mL and leave the unit unwritten.

As a guide, the following entries are already answered.
> print(dat)
                                 chemsmiles        metric  measurementunits  observedmeasurement
1  C[C@@H]1Cc2c([nH]c3ccccc23)[C@@H](c2ccc(OCCN3CC(CF)C3)cc2)N1CC(C)(C)F  total AUCinf           ng·h/mL                 2289
2  C[C@@H]1Cc2c([nH]c3ccccc23)[C@@H](c2c(F)cc(OCCN3CC(CF)C3)cc2F)N1CC(C)(C)F  total AUCinf           ng·h/mL                 2090
3  CCCN1CC(Oc2ccc([C@@H]3c4[nH]c5ccccc5c4C[C@@H](C)N3CC(C)(C)F)cc2)C1  total AUCinf           ng·h/mL                 2477

Task: // query total AUCinf value for entry `CCCN1CC(Oc2cc(F)c([C@@H]3c4[nH]c5ccccc5c4C[C@@H](C)N3CC(C)(C)F)c(F)c2)C1`
Result: 2743

----------
Consider the following compounds and their measured pIC50 readings.
# experimentalTarget: ERα (Homo sapiens)
# Sequence (P03372 whole entry): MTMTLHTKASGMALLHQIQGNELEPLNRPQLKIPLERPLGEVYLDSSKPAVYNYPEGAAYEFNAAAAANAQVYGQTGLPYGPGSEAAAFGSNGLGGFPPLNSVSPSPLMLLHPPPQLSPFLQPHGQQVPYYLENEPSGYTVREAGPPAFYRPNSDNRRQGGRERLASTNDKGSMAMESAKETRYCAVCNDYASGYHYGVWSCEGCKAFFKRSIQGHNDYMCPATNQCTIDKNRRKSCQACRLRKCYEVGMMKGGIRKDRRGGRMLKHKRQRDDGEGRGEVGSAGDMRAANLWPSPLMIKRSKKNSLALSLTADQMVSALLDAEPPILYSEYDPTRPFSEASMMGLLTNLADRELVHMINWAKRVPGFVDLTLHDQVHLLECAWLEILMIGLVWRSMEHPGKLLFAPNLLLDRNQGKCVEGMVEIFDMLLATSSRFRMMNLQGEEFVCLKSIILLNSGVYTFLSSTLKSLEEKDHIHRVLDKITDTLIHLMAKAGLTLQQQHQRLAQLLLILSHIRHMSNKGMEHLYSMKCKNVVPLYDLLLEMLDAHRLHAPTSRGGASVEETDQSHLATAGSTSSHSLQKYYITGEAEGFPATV
# testProtocol: Alkaline phosphatase
# Assay type: cell-based
Note on units: pIC50 is unitless, being -log10 of a concentration expressed in mol/L.

As a guide, the following entries are already answered.
> print(dat)
                                   compound  observedmeasurement
1  CCCN1CC(Oc2ccc([C@@H]3c4[nH]c5ccccc5c4C[C@@H](C)N3CC(F)(F)CO)cc2)C1 [compound 38]                 9.80
2  CCCN1CC(Oc2ccc([C@@H]3c4[nH]c5ccccc5c4C[C@@H](C)N3C[C@H](C)CO)cc2)C1 [compound 37]                 8.00
3  C[C@@H]1Cc2c([nH]c3ccccc23)[C@@H](c2ccc(OC3CN(C)C3)cc2)N1CC(C)(C)F [compound 33]                 8.10

Moving on to the next compound.
Task: // query pIC50 value for entry CCCN1CC(Oc2ccc([C@@H]3c4[nH]c5ccccc5c4C[C@@H](C)N3CC(F)(F)COC)cc2)C1 [compound 41]
Result: 8.30
